- assay_target: TLR8 (Homo sapiens, UniProt Q9NR97)
- Sequence (Q9NR97 27-827): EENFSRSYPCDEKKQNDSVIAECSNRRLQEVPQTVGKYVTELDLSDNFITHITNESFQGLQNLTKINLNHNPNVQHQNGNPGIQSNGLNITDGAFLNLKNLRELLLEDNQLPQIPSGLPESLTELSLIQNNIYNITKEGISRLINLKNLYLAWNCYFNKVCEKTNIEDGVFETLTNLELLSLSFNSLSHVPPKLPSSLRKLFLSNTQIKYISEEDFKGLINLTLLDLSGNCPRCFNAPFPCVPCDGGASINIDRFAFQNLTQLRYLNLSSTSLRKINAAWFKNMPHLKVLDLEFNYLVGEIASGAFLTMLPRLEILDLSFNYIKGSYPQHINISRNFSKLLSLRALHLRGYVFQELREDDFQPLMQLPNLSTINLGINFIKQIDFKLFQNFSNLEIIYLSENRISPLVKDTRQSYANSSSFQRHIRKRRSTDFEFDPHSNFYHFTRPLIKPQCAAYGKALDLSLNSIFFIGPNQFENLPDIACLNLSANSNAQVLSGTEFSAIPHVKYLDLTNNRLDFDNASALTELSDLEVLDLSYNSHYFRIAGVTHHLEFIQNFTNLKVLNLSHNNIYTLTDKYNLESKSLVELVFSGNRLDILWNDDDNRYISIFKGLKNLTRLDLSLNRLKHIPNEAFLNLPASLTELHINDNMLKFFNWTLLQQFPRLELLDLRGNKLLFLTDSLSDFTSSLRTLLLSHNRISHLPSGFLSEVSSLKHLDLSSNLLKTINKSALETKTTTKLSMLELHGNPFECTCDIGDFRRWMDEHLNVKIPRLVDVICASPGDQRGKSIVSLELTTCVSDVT
quantity: pKd
The read-out pKd is expressed as -log10 of concentration in moles per litre.

pKd measured on `O=c1ccn([C@@H]2O[C@H](CO)[C@@H](O)[C@H]2O)c(=O)[nH]1` = 4.92
